- tested.on: T1, thermostable variant of Streptomyces mobaraensis transglutaminase (Streptomyces mobaraensis, UniProt P81453 79-407)
- T1 sequence: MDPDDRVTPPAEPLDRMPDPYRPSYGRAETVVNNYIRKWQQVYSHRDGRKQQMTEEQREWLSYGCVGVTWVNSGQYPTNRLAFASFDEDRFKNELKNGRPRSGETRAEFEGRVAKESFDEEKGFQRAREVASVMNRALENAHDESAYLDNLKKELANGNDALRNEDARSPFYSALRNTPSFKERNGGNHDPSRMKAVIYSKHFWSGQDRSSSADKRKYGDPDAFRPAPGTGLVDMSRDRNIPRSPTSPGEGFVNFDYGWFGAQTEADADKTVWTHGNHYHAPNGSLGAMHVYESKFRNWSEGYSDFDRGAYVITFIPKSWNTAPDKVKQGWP
- method.notes: cell-based or functional assay
recorded.endpoint: Reduction in binding affinity of inhibitory peptide relative to WT

# binder, test.result
measured = [
    ("MDNGAGEETKSSAETYRLTADDVANINALNESAPAASSAGPSFRAP [pro-peptide variant Y12S]", "> 5 fold"),
]

Look up Reduction in binding affinity of inhibitory peptide relative to WT for the entries below, preserving their order.
1. MDNGAGEGTKSYAETYRLTADDVANINALNESAPAASSAGPSFRAP [pro-peptide variant E8G]
2. MDNGAGEETKSPAETYRLTADDVANINALNESAPAASSAGPSFRAP [pro-peptide variant Y12P]
3. MDNGAGEETKSYAVTYRLTADDVANINALNESAPAASSAGPSFRAP [pro-peptide variant E14V]
4. MDNGAGEETKSYADTYRLTADDVANINALNESAPAASSAGPSFRAP [pro-peptide variant E14D]
5. MDNGAGEETKSYAETYRLTADDVANINALNESAPAASPAGPSFRAP [pro-peptide variant S38P]
6. MDNGAGEETKSYAETYRLTADDVANANALNESAPAASSAGPSFRAP [pro-peptide variant I26A]

1. > 1.2 fold
2. > 1.2 fold
3. > 1.2 fold
4. > 1.2 fold
5. > 1.2 fold
6. > 1.2 fold

Data provenance: patent US20250304927A1
